Hey, just so you know, these numbers are from the SangsterLogP compilation.

Experiment: method code SF-AS, from DOI: 10.1016/s0021-9673(00)94589-8, PMID: 3356765
Task for the reader: assign each of the following compounds its reported logP.
Numbers only.

INSERT INTO results (line_notation, reading) VALUES
  ('COC(=O)Nc1cccc([N+](=O)[O-])c1', 1.95),
  ('COC(=O)Nc1ccccc1[N+](=O)[O-]', 2.07),
  ('COC(=O)Nc1cccc(C)c1', 2.22);

Would you mind giving logP for every compound in the list below?
1. COC(=O)Nc1cccc(C(F)(F)F)c1
2. COC(=O)Nc1ccc(C)cc1
3. COC(=O)Nc1ccccc1OC
4. COC(=O)Nc1ccccc1C(F)(F)F
5. CCOc1ccc(NC(=O)OC(C)C)cc1OCC

[2.74, 2.27, 1.84, 2.09, 2.82]
